These data points were gathered from ChEMBL document CHEMBL1138461.

The entries below come with measured pIC50 values attached.
# Target Entity: Inhibitor of nuclear factor kappa-B kinase subunit beta (Homo sapiens)
# Sequence (O14920 whole entry): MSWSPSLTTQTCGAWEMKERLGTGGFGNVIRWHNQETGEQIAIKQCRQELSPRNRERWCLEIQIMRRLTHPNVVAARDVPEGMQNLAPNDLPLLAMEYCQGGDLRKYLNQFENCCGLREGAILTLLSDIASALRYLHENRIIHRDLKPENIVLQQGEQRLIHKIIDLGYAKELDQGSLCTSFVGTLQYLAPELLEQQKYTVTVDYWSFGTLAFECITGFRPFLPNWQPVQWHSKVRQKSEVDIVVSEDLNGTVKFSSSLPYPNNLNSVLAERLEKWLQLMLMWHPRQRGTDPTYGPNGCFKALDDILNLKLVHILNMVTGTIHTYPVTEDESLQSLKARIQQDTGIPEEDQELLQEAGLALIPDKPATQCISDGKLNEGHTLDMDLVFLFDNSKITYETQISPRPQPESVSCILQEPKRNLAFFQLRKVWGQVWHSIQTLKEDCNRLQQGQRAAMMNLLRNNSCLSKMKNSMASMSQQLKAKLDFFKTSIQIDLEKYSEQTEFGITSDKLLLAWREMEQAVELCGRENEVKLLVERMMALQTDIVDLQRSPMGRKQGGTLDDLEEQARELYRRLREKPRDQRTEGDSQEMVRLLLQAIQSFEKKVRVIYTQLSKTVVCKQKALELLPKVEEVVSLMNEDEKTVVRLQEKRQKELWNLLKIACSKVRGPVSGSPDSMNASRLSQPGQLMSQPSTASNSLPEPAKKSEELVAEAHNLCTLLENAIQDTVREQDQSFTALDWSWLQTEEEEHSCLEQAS
# Experiment Summary: Inhibition of human recombinant IKK2
Note: pIC50 values are expressed as the negative base-10 logarithm of concentration in M.

Req: Please give the measured pIC50 for this compound: Cc1cc2c(-c3ccc(S(=O)(=O)N(C)C4CCS(=O)(=O)CC4)cc3)ccnc2[nH]1
Resp: 7.40

Req: # iterate: NS(=O)(=O)c1cccc(-c2ccnc3[nH]ccc23)c1
Resp: 5.30

Req: # iterate: Cc1cc2c(-c3ccc(S(=O)(=O)NCCN)cc3)ccnc2[nH]1
Resp: 7.70

Req: # iterate: Cc1cc2c(-c3ccc(N(C)S(C)(=O)=O)cc3)ccnc2[nH]1
Resp: 6.50

###

# Target Entity: Rho-associated protein kinase 1 (Homo sapiens)
# Sequence (Q13464 whole entry): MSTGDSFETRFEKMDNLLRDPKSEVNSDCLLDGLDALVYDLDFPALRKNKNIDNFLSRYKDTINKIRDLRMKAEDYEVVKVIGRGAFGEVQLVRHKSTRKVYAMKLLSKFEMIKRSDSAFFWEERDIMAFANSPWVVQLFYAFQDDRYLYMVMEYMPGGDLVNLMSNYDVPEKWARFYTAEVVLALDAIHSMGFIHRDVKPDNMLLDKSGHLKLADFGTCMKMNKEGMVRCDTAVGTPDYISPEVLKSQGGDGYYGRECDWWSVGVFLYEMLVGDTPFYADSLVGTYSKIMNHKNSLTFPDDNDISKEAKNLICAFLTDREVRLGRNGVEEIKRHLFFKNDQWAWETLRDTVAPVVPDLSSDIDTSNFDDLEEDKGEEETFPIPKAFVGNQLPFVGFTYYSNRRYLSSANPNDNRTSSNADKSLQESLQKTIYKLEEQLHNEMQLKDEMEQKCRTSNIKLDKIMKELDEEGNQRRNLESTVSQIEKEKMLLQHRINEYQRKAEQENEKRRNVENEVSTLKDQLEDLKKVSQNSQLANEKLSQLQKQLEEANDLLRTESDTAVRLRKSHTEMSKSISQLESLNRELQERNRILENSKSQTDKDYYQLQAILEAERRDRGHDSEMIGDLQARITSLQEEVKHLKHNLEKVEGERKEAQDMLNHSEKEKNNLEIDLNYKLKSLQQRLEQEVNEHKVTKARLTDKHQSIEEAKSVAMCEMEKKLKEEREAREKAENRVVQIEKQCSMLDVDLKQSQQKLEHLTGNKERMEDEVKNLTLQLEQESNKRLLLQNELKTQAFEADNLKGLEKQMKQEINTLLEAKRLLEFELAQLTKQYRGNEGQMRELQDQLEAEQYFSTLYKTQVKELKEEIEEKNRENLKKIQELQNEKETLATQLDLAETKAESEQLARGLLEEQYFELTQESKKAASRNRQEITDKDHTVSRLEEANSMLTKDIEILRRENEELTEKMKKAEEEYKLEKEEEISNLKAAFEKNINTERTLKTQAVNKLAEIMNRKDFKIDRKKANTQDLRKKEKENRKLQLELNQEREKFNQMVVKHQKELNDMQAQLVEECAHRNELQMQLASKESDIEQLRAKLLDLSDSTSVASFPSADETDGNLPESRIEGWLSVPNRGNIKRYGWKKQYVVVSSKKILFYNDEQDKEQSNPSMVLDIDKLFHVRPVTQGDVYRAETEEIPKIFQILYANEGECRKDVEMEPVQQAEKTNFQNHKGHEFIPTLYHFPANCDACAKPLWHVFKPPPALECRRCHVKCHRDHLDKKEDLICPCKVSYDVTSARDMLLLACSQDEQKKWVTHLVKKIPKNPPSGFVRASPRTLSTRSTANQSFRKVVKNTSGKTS
# Experiment Summary: Inhibition of human recombinant ROCK1
The entries below come with measured pIC50 values attached.
Note: pIC50 values are expressed as the negative base-10 logarithm of concentration in M.

Example entries and their recorded answers appear below.
{"Mol Smiles": "NCCNS(=O)(=O)c1ccc(-c2ccnc3[nH]c(CC(N)=O)cc23)cc1", "pIC50": 5.00}
{"Mol Smiles": "Cc1cc2c(-c3ccc(S(=O)(=O)NCCN)cc3)ccnc2[nH]1", "pIC50": 6.50}

Now turn to the next compound.
Req: Which pIC50 is reported with Rho-associated protein kinase 1 (Homo sapiens) for this entry: NCCNS(=O)(=O)c1ccc(-c2ccnc3[nH]ccc23)cc1 ?
Resp: 7.70

###

# Target Entity: Inhibitor of nuclear factor kappa-B kinase subunit alpha (Homo sapiens)
# Sequence (O15111 whole entry): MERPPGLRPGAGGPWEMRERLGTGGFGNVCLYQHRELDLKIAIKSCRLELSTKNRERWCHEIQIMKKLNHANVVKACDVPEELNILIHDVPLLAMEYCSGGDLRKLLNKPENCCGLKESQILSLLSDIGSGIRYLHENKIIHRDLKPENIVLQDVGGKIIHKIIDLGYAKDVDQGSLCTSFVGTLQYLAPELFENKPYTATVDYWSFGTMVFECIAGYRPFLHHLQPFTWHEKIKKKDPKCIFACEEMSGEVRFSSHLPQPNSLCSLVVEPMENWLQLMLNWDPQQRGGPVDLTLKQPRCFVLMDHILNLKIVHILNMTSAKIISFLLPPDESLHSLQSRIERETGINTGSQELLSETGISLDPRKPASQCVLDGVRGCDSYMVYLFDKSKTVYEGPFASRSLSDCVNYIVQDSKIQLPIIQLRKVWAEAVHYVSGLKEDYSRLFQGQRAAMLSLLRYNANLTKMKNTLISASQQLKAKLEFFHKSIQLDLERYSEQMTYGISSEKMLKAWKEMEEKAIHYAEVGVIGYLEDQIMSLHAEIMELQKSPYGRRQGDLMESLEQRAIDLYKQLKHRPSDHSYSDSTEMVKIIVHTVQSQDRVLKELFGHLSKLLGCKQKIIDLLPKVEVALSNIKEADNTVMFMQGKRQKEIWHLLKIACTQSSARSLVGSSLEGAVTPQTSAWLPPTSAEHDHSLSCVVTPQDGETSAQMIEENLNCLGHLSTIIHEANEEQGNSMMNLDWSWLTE
# Experiment Summary: Inhibition of human recombinant IKK1
Just a reminder that ties go to false: only IC50 strictly below 1000 nM counts as true.

Req: State whether 1000 nM exceeds IC50 recorded for Cc1cc2c(-c3ccc(NS(=O)(=O)CCN)cc3)ccnc2[nH]1 .
Resp: true

Req: # iterate: O=S(=O)(c1ccc(-c2ccnc3[nH]ccc23)cc1)N1CCCC1
Resp: false

###

# Target Entity: Inhibitor of nuclear factor kappa-B kinase subunit beta (Homo sapiens)
# Experiment Summary: Inhibition of human recombinant IKK2
Quantity Measured: IC50 (nM)
Numeric only. Scale: nM

{"Mol Smiles": "Cc1cc2c(-c3ccc(NS(C)(=O)=O)cc3)ccnc2[nH]1", "IC50, nM": 63.1}
{"Mol Smiles": "NC(=O)c1ccc(-c2ccnc3[nH]ccc23)cc1", "IC50, nM": 631}
{"Mol Smiles": "NCCNS(=O)(=O)c1ccc(-c2ccnc3[nH]ccc23)cc1", "IC50, nM": 39.8}
{"Mol Smiles": "CS(=O)(=O)Nc1ccc(-c2ccnc3[nH]ccc23)cc1", "IC50, nM": 158}
{"Mol Smiles": "Cc1cc2c(-c3ccc(S(=O)(=O)NCCO)cc3)ccnc2[nH]1", "IC50, nM": 20}
{"Mol Smiles": "O=S(=O)(NC1CNC1)c1ccc(-c2ccnc3[nH]ccc23)cc1", "IC50, nM": 39.8}
{"Mol Smiles": "NCCNS(=O)(=O)c1ccc(-c2ccnc3[nH]c(CC(N)=O)cc23)cc1", "IC50, nM": 20}
{"Mol Smiles": "Cc1cc2c(-c3ccc(NS(=O)(=O)CCN)cc3)ccnc2[nH]1", "IC50, nM": 15.8}

Req: Which IC50 is reported with Inhibitor of nuclear factor kappa-B kinase subunit beta (Homo sapiens) for this entry: c1ccc(-c2ccnc3[nH]ccc23)cc1 ?
Resp: 3160

Req: # iterate: O=S(=O)(c1ccc(-c2ccnc3[nH]ccc23)cc1)N1CCCC1
Resp: 251

Req: # iterate: CN(C)CCNS(=O)(=O)c1ccc(-c2ccnc3[nH]ccc23)cc1
Resp: 200

Req: # iterate: NS(=O)(=O)c1ccc(-c2ccnc3[nH]ccc23)cc1
Resp: 316

Req: # iterate: CNCCNS(=O)(=O)c1ccc(-c2ccnc3[nH]ccc23)cc1
Resp: 31.6
